- PROTOCOL_NOTES: Acute toxicity assay, single oral administration
- MEASUREMENT_SETUP: ICR, mouse, in vivo, po
MEASURED_PROPERTY: LD50 at 6 days

Qu. Give the measured LD50 at 6 days of CN(C)C(=O)N[C@H]1CC[C@H](CCN2CCN(c3cccc(Cl)c3Cl)CC2)CC1 [Cariprazine, reference compound] .
Ans. 75.3 mg/kg

* * *

- PROTOCOL_NOTES: Acute toxicity assay, single oral administration
- MEASUREMENT_SETUP: ICR, mouse, in vivo; single oral administration, Bliss method; read-out: LD50
Consider the following molecules; for each one, report its LD50 at 6 days.
Output spec: scalar in mg/kg, unitless text.

Qu. Give the measured LD50 at 6 days of CN(C)C(=O)N[C@H]1CC[C@H](CCN2CCN(c3cccc4sccc34)CC2)CC1 [drawing 37] .
Ans. 1080

Qu. Give the measured LD50 at 6 days of CN(C)C(=O)N[C@H]1CC[C@H](CCN2CCN(c3cccc4cscc34)CC2)CC1 [drawing 36] .
Ans. 1050

Qu. Give the measured LD50 at 6 days of CN(C)C(=O)N[C@H]1CC[C@H](CCN2CCN(c3cccc4ccsc34)CC2)CC1 [drawing 35] .
Ans. 1100
